Source: ChEMBL document CHEMBL2177079

# ASSAY_NAME: Fraction unbound in male beagle dog plasma
# Type: ADME, cell-free, Canis lupus familiaris

| STRUCTURE_SMILES_STRING | VALUE_MODIFIER | fraction unbound |
| --- | --- | --- |
| O=C(N[C@H]1C2CC3CC1C[C@](O)(C3)C2)c1cnc(N[C@H]2CCOC2)nc1C1CCCC1 | = | 0.38 |
| O=C(N[C@H]1C2CC3CC1C[C@](O)(C3)C2)c1cnc(NC2CCOCC2)nc1C1CCC1 | > | 0.66 |

###

# SUBJECT_OF_TEST: 11-beta-hydroxysteroid dehydrogenase 1 (Mus musculus, UniProt P50172)
# Sequence (P50172 whole entry): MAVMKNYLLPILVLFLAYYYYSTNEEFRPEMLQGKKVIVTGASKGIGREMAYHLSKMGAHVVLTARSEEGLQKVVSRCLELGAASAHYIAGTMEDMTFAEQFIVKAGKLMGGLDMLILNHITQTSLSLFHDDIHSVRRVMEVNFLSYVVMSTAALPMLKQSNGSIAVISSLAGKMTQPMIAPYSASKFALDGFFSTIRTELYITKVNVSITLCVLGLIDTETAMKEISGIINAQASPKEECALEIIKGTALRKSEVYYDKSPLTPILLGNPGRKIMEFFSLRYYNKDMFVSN
pIC50: −log10 of the molar value.

| STRUCTURE_SMILES_STRING | pIC50 |
| --- | --- |
| CN(C)C(=O)CNc1ncc(C(=O)N[C@H]2C3CC4CC2C[C@](O)(C4)C3)c(C2CCCC2)n1 | 6.79 |
| C[C@@H](O)CNc1ncc(C(=O)N[C@H]2C3CC4CC2C[C@](O)(C4)C3)c(C2CCCC2)n1 | 7.17 |
| O=C(N[C@H]1C2CC3CC1C[C@](O)(C3)C2)c1cnc(NCCO)nc1C1CCCC1 | 6.75 |
| O=C(N[C@H]1C2CC3CC1C[C@](O)(C3)C2)c1cnc(NC2CCOCC2)nc1C1CCCC1 | 7.42 |
| O=C(N[C@H]1C2CC3CC1C[C@](O)(C3)C2)c1cnc(N[C@@H]2CCOC2)nc1C1CCC1 | 7.43 |
| COCCNc1ncc(C(=O)N[C@H]2C3CC4CC2C[C@](O)(C4)C3)c(C2CCCC2)n1 | 7.14 |
| O=C1C[C@H](CNc2ncc(C(=O)N[C@H]3C4CC5CC3C[C@](O)(C5)C4)c(C3CCCC3)n2)CN1 | 7.07 |
| O=C(N[C@H]1C2CC3CC1C[C@](O)(C3)C2)c1cnc(NC2CCOCC2)nc1C1CCC1 | 7.57 |
| O=C(N[C@H]1C2CC3CC1C[C@](O)(C3)C2)c1cnc(NC2CCS(=O)(=O)CC2)nc1C1CCCC1 | 7.19 |

###

# ASSAY_NAME: Volume of distribution at steady state in female beagle dog at 1 umol/kg, iv
# Type: ADME, organism-based, Canis lupus familiaris
# ASSAY_CONDITIONS: in vivo, read-out: Vdss

| STRUCTURE_SMILES_STRING | ENDPOINT_UNIT | Vd |
| --- | --- | --- |
| O=C(N[C@H]1C2CC3CC1C[C@](O)(C3)C2)c1cnc(NC2CCOCC2)nc1C1CCC1 | L/kg | 1.6 |

###

Item-by-item account of half-life
# ASSAY_NAME: Half life in Han Wistar rat at 4.7 umol/kg, iv
# Format: ADME, organism-based
# ASSAY_CONDITIONS: in vivo
MEASURED_QUANTITY: half-life (h)

| STRUCTURE_SMILES_STRING | QUANTITATIVE_RESULT |
| --- | --- |
| O=C(N[C@H]1C2CC3CC1C[C@](O)(C3)C2)c1cnc(N[C@H]2CCOC2)nc1C1CCCC1 | 2.4 |
| O=C(N[C@H]1C2CC3CC1C[C@](O)(C3)C2)c1cnc(NC2CCOCC2)nc1C1CCC1 | 0.6 |
